measurement target: UniProt:Q04756
Sequence (Q04756 whole entry): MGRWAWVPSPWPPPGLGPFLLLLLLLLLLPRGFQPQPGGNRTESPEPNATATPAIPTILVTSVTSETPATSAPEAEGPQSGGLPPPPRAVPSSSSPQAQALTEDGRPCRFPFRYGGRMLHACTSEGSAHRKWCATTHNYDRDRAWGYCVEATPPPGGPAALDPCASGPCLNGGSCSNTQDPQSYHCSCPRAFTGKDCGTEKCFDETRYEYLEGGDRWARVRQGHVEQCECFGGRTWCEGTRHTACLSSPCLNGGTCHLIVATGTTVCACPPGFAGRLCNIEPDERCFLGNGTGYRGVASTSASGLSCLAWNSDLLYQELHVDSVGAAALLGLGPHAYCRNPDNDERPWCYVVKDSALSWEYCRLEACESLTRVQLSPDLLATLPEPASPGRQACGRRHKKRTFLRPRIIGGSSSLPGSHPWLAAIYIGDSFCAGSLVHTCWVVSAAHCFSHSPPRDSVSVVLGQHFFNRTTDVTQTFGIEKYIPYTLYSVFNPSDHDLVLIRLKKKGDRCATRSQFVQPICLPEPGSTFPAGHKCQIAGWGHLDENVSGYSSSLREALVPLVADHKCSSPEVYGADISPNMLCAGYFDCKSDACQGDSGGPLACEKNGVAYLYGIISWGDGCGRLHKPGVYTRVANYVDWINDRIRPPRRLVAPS
Quick list: Ki per entry.
Just the number please, in µM, no unit attached.

Previously resolved entries follow.
1) N=C(N)NCCC[C@H](NC(=O)OCC1c2ccccc2-c2ccccc21)C(=O)N[C@@H](CCCNC(=N)N)C(=O)c1nc2ccccc2s1 = 8.63
2) C[C@H](NC(=O)OCC1c2ccccc2-c2ccccc21)C(=O)N[C@@H](CCCNC(=N)N)C(=O)c1nc2ccccc2s1 = 7.98
3) N=C(N)NCCC[C@H](NC(=O)CNC(=O)OCC1c2ccccc2-c2ccccc21)C(=O)c1nc2ccccc2s1 = 9.37
4) N=C(N)NCCC[C@H](NC(=O)[C@H](Cc1ccc(O)cc1)NC(=O)OCC1c2ccccc2-c2ccccc21)C(=O)c1nc2ccccc2s1 = 2.96
5) N=C(N)NCCC[C@H](NC(=O)[C@H](Cc1cnc[nH]1)NC(=O)OCC1c2ccccc2-c2ccccc21)C(=O)c1nc2ccccc2s1 = 6.12

Please find the next compound below.
Give Ki for CC[C@H](C)[C@H](NC(=O)OCC1c2ccccc2-c2ccccc21)C(=O)N[C@@H](CCCNC(=N)N)C(=O)c1nc2ccccc2s1 4.3

====

Species on record: Homo sapiens
assay explanation: Selectivity ratio of Ki(app) for recombinant human N-terminal His6-tagged matriptase catalytic domain expressed in Escherichia coli to Ki(app) for recombinant human C-terminal His10-tagged hepsin catalytic domain
I'd appreciate it if you marked entries label 1 when Ratio Ki(app) is lower than 4 and label 0 when it is not.

Example results:
1. CC(=O)N[C@@H](CCCCN)C(=O)N[C@@H](CCC(N)=O)C(=O)N[C@@H](CC(C)C)C(=O)N[C@@H](CCCNC(=N)N)C(=O)c1nc2ccccc2s1 = label 0
2. N=C(N)NCCC[C@H](NC(=O)[C@H](CC(N)=O)NC(=O)OCC1c2ccccc2-c2ccccc21)C(=O)c1nc2ccccc2s1 = label 0
3. CC(=O)N[C@@H](CO)C(=O)N[C@@H](CCCCN)C(=O)N[C@@H](CC(C)C)C(=O)N[C@@H](CCCNC(=N)N)C(=O)c1nc2ccccc2s1 = label 0
4. CC[C@H](C)[C@H](NC(=O)OCC1c2ccccc2-c2ccccc21)C(=O)N[C@@H](CCCNC(=N)N)C(=O)c1nc2ccccc2s1 = label 1
5. N=C(N)NCCC[C@H](NC(=O)[C@H](CC(=O)O)NC(=O)OCC1c2ccccc2-c2ccccc21)C(=O)c1nc2ccccc2s1 = label 1

Given CC(C)C[C@H](NC(=O)OCC1c2ccccc2-c2ccccc21)C(=O)N[C@@H](CCCNC(=N)N)C(=O)c1nc2ccccc2s1 , is recorded Ratio Ki(app) strictly lower than 4? label 1

Given C[C@@H](O)[C@H](NC(=O)OCC1c2ccccc2-c2ccccc21)C(=O)N[C@@H](CCCNC(=N)N)C(=O)c1nc2ccccc2s1 , is recorded Ratio Ki(app) strictly lower than 4? label 1

Given N=C(N)NCCC[C@H](NC(=O)[C@H](Cc1c[nH]c2ccccc12)NC(=O)OCC1c2ccccc2-c2ccccc21)C(=O)c1nc2ccccc2s1 , is recorded Ratio Ki(app) strictly lower than 4? label 1
